Numbers sourced from patent US9441012B2.

System: NCI-H23
Assay: NCI 60 human tumor cell line screen (SRB)
Type: cell-based
Conditions: NCI-H23 (Non-Small Cell Lung Cancer); 48 h
Description: […] Following drug addition, the plates are incubated for an additional 48 h at 37° C., 5% CO2, 95% air, and 100% relative humidity. […] Bound stain is subsequently solubilised with 10 mM trizma base, and the absorbance is read on an automated plate reader at a wavelength of 515 nm. […] Percentage growth inhibition is calculated as: [(Ti−Tz)/(C−Tz)]×100 for concentrations in which Ti>/=Tz and [(Ti−Tz)/Tz]×100 for concentrations in which Ti<Tz. […]
What Log10LC50 was measured for each of the following?
Hey, just send me the number, nothing else.

Entry C[C@]1(C(=O)[C@H](Cc2ccccc2)NC(=O)[C@H](COC(F)F)NC(=O)[C@H](COC(F)F)NC(=O)CN2CCOCC2)CO1 [Example 26] has what Log10LC50?
−5.64

Entry Cc1ncc(C(=O)N[C@@H](COC(F)F)C(=O)N[C@@H](COC(F)F)C(=O)N[C@@H](Cc2ccccc2)C(=O)[C@@]2(C)CO2)s1 [Example 1] has what Log10LC50?
−5.27

Entry CC(C)C[C@H](NC(=O)[C@H](Cc1ccccc1)NC(=O)[C@H](COC(F)F)NC(=O)CN1CCOCC1)C(=O)[C@@]1(C)CO1 [Example 25] has what Log10LC50?
−5.64

* * *

test system: SR; experiment: NCI 60 human tumor cell line screen (SRB); format: cell-based; settings: SR (Leukemia); 48 h
What Log10GI50 was measured for each of the following?
Hey, just send me the number, nothing else.

Form: Entry = C[C@]1(C(=O)[C@H](Cc2ccccc2)NC(=O)[C@H](COC(F)F)NC(=O)[C@H](COC(F)F)NC(=O)CN2CCOCC2)CO1 | System = SR | Log10GI50 = ____
−7.71

Form: Entry = Cc1ncc(C(=O)N[C@@H](COC(F)F)C(=O)N[C@@H](COC(F)F)C(=O)N[C@@H](Cc2ccccc2)C(=O)[C@@]2(C)CO2)s1 | System = SR | Log10GI50 = ____
−7.30

Form: Entry = CC(C)C[C@H](NC(=O)[C@H](Cc1ccccc1)NC(=O)[C@H](COC(F)F)NC(=O)CN1CCOCC1)C(=O)[C@@]1(C)CO1 | System = SR | Log10GI50 = ____
−7.71

Form: Entry = C[C@]1(C(=O)[C@H](Cc2ccccc2)NC(=O)[C@H](Cc2ccccc2)NC(=O)[C@H](COC(F)F)NC(=O)CN2CCOCC2)CO1 | System = SR | Log10GI50 = ____
−7.69

* * *

tested on: SK-MEL-28; assay: NCI 60 human tumor cell line screen (SRB); format: cell-based; conditions: SK-MEL-28 (Melanoma); 48 h
What Log10TGI50 was measured for each of the following?

Entry Cc1ncc(C(=O)N[C@@H](COC(F)F)C(=O)N[C@@H](COC(F)F)C(=O)N[C@@H](Cc2ccccc2)C(=O)[C@@]2(C)CO2)s1 has what Log10TGI50?
−6.12

Entry CC(C)C[C@H](NC(=O)[C@H](Cc1ccccc1)NC(=O)[C@H](COC(F)F)NC(=O)CN1CCOCC1)C(=O)[C@@]1(C)CO1 has what Log10TGI50?
−6.69

Entry C[C@]1(C(=O)[C@H](Cc2ccccc2)NC(=O)[C@H](COC(F)F)NC(=O)[C@H](COC(F)F)NC(=O)CN2CCOCC2)CO1 has what Log10TGI50?
−6.69

Entry C[C@]1(C(=O)[C@H](Cc2ccccc2)NC(=O)[C@H](Cc2ccccc2)NC(=O)[C@H](COC(F)F)NC(=O)CN2CCOCC2)CO1 has what Log10TGI50?
−6.34

* * *

tested on: RPMI-8226; assay: NCI 60 human tumor cell line screen (SRB); assay type: cell-based; conditions: RPMI-8226 (Leukemia); 48 h
Reported metric: Log10GI50
Hey, just send me the number, nothing else.

Entry C[C@]1(C(=O)[C@H](Cc2ccccc2)NC(=O)[C@H](Cc2ccccc2)NC(=O)[C@H](COC(F)F)NC(=O)CN2CCOCC2)CO1 [Example 29] has what Log10GI50?
−7.40

Entry Cc1ncc(C(=O)N[C@@H](COC(F)F)C(=O)N[C@@H](COC(F)F)C(=O)N[C@@H](Cc2ccccc2)C(=O)[C@@]2(C)CO2)s1 [Example 1] has what Log10GI50?
−7.40

Entry CC(C)C[C@H](NC(=O)[C@H](Cc1ccccc1)NC(=O)[C@H](COC(F)F)NC(=O)CN1CCOCC1)C(=O)[C@@]1(C)CO1 [Example 25] has what Log10GI50?
−7.52

Entry C[C@]1(C(=O)[C@H](Cc2ccccc2)NC(=O)[C@H](COC(F)F)NC(=O)[C@H](COC(F)F)NC(=O)CN2CCOCC2)CO1 [Example 26] has what Log10GI50?
−7.52

* * *

system: SK-MEL-28; test: NCI 60 human tumor cell line screen (SRB); assay type: cell-based; conditions: SK-MEL-28 (Melanoma); 48 h
What Log10LC50 was measured for each of the following?
Hey, just send me the number, nothing else.

Entry Cc1ncc(C(=O)N[C@@H](COC(F)F)C(=O)N[C@@H](COC(F)F)C(=O)N[C@@H](Cc2ccccc2)C(=O)[C@@]2(C)CO2)s1 has what Log10LC50?
−4.69

Entry CC(C)C[C@H](NC(=O)[C@H](Cc1ccccc1)NC(=O)[C@H](COC(F)F)NC(=O)CN1CCOCC1)C(=O)[C@@]1(C)CO1 has what Log10LC50?
−4.82

Entry C[C@]1(C(=O)[C@H](Cc2ccccc2)NC(=O)[C@H](COC(F)F)NC(=O)[C@H](COC(F)F)NC(=O)CN2CCOCC2)CO1 has what Log10LC50?
−4.82

* * *

test system: OVCAR-4; test: NCI 60 human tumor cell line screen (SRB); format: cell-based; conditions: OVCAR-4 (Ovarian Cancer); 48 h
Reported metric: Log10TGI50
Hey, just send me the number, nothing else.

Entry CC(C)C[C@H](NC(=O)[C@H](Cc1ccccc1)NC(=O)[C@H](COC(F)F)NC(=O)CN1CCOCC1)C(=O)[C@@]1(C)CO1 has what Log10TGI50?
−6.75

Entry C[C@]1(C(=O)[C@H](Cc2ccccc2)NC(=O)[C@H](COC(F)F)NC(=O)[C@H](COC(F)F)NC(=O)CN2CCOCC2)CO1 has what Log10TGI50?
−6.75

* * *

What Log10TGI50 was measured for each of the following?
tested on: PC-3; assay: NCI 60 human tumor cell line screen (SRB); format: cell-based; settings: PC-3 (Prostate Cancer); 48 h
Hey, just send me the number, nothing else.

Entry C[C@]1(C(=O)[C@H](Cc2ccccc2)NC(=O)[C@H](COC(F)F)NC(=O)[C@H](COC(F)F)NC(=O)CN2CCOCC2)CO1 has what Log10TGI50?
−6.80

Entry Cc1ncc(C(=O)N[C@@H](COC(F)F)C(=O)N[C@@H](COC(F)F)C(=O)N[C@@H](Cc2ccccc2)C(=O)[C@@]2(C)CO2)s1 has what Log10TGI50?
−4.99

Entry CC(C)C[C@H](NC(=O)[C@H](Cc1ccccc1)NC(=O)[C@H](COC(F)F)NC(=O)CN1CCOCC1)C(=O)[C@@]1(C)CO1 has what Log10TGI50?
−6.80

Entry C[C@]1(C(=O)[C@H](Cc2ccccc2)NC(=O)[C@H](Cc2ccccc2)NC(=O)[C@H](COC(F)F)NC(=O)CN2CCOCC2)CO1 has what Log10TGI50?
−6.40

* * *

system: OCI-AML-2; experiment: Cell viability assay (MTS); assay type: cell-based; settings: Homo sapiens, OCI-AML2, 72 hours, mean ± standard deviation
What pIC50 was measured for each of the following?
The quantity pIC50 is defined as the negative base-10 logarithm of the molar concentration.

Entry C[C@]1(C(=O)[C@H](Cc2ccccc2)NC(=O)[C@H](Cc2ccccc2)NC(=O)[C@H](COC(F)F)NC(=O)CN2CCOCC2)CO1 has what pIC50?
7.12

Entry CC(C)C[C@H](NC(=O)[C@H](COC(F)F)NC(=O)CN1CCOCC1)C(=O)N[C@@H](CC(C)C)C(=O)[C@@]1(C)CO1 has what pIC50?
6.88

Entry Cc1ncc(C(=O)N[C@@H](COC(F)F)C(=O)N[C@@H](COC(F)F)C(=O)N[C@@H](Cc2ccccc2)C(=O)[C@@]2(C)CO2)s1 has what pIC50?
6.96

Entry CC(C)C[C@H](NC(=O)[C@H](COC(F)F)NC(=O)[C@H](COC(F)F)NC(=O)CN1CCOCC1)C(=O)[C@@]1(C)CO1 has what pIC50?
6.85
